biological target: potassium ion channel hERG (human Ether-á-go-go-Related Gene) (Homo sapiens, UniProt Q12809); test: Assay 5 - hERG assay (SyncroPatch 384PE patch clamp, CHO cells); conditions: geometric mean, CHO cells over-expressing hERG, read-out: Assay 5 (hERG Hu CHO IF EPh CR-Syncro) GMean IC50
Sequence (Q12809 whole entry): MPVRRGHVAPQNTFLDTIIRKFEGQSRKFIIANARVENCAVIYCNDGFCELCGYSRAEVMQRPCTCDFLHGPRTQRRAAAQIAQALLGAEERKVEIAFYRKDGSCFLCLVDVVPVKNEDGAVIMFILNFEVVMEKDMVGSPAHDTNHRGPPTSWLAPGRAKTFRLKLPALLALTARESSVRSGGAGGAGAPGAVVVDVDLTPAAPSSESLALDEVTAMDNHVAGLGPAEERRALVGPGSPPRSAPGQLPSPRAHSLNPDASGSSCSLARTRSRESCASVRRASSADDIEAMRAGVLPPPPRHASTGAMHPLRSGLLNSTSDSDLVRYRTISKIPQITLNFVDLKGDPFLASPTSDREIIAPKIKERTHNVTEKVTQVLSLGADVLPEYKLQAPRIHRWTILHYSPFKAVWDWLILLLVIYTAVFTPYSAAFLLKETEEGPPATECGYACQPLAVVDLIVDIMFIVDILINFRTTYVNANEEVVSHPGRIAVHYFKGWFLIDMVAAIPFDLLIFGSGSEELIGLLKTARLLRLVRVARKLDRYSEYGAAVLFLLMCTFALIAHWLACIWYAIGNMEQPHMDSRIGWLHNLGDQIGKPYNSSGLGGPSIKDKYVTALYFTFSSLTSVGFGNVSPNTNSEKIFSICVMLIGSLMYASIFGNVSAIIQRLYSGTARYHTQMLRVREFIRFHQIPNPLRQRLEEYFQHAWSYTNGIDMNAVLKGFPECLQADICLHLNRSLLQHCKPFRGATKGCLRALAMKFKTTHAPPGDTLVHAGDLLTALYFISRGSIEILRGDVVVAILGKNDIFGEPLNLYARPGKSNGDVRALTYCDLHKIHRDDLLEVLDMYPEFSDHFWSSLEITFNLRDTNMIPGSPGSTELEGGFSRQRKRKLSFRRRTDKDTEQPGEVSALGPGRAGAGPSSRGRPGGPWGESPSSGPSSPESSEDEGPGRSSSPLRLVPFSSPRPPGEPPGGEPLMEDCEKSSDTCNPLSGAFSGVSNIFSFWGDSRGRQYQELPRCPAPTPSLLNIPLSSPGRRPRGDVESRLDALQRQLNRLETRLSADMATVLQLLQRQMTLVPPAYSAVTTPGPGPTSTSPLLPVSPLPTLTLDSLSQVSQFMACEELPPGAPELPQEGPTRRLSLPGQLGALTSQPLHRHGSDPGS
pIC50: −log10 of the molar value.
Could you please report measured pIC50 for the items listed next?

What value of pIC50 has been reported for the following molecule? O=c1ccccn1-c1ccc(N[C@H]2CC[C@H](Nc3nc4cc(Br)cnc4[nH]3)C2)nc1
< 4.40

Now give it for Cc1cccn(-c2ccc(N[C@H]3CC[C@H](Nc4nc5cccnc5[nH]4)C3)nc2)c1=O too.
< 4.40

Now give it for O=c1ccccn1-c1ccc(N[C@H]2CC[C@H](Nc3nc4ccccc4[nH]3)C2)nc1 too.
5.40

Now give it for Cn1cccc(-c2cnc(N[C@H]3CC[C@H](Nc4nc5cccnc5[nH]4)C3)nc2)c1=O too.
< 4.40

Now give it for O=c1ccccn1-c1ccc(N[C@H]2CC[C@H](Nc3nc4ncccc4s3)C2)nc1 too.
< 4.40

Now give it for O=c1ccccn1-c1ccc(N[C@H]2CC[C@H](Nc3nc4cc(F)cnc4[nH]3)C2)nc1 too.
< 4.40

Now give it for O=c1c(OC(F)F)cccn1-c1ccc(N[C@H]2CC[C@H](Nc3nc4cccnc4s3)C2)nc1 too.
5.21

Now give it for O=c1ccc2cccnc2n1-c1ccc(N[C@H]2CC[C@H](Nc3nc4cccnc4[nH]3)C2)nc1 too.
< 4.40

Now give it for COc1cccn(-c2ccc(N[C@H]3CC[C@H](Nc4nc5cccnc5o4)C3)nc2)c1=O too.
< 4.40

Now give it for O=c1ccccn1-c1ccc(N[C@H]2CC[C@H](Nc3nc4cc(Cl)cnc4[nH]3)C2)nc1 too.
< 4.40

Now give it for O=c1ccncn1-c1ccc(N[C@H]2CC[C@H](Nc3nc4cccnc4[nH]3)C2)nc1 too.
< 4.40

Now give it for COc1cccn(-c2ccc(N[C@H]3CC[C@H](Nc4nc5cccnc5s4)C3)nc2)c1=O too.
< 4.40

Now give it for COc1cccn(-c2ccc(N[C@H]3CC[C@H](Nc4nc5cccnc5[nH]4)C3)nc2)c1=O too.
< 4.40

Now give it for O=c1ccc2ccccc2n1-c1ccc(N[C@H]2CC[C@H](Nc3nc4cccnc4[nH]3)C2)nc1 too.
< 4.40

Now give it for O=c1c(Cl)cccn1-c1ccc(N[C@H]2CC[C@H](Nc3nc4cccnc4s3)C2)nc1 too.
4.86

Now give it for O=c1ccccn1-c1ccc(N[C@H]2CC[C@H](Nc3nc4cc(C(F)(F)F)cnc4[nH]3)C2)nc1 too.
< 4.40

All values here come from patent US20240239767A1.
